Listed here: items and their measured TGI.
# Tested on: OVCAR-3 ovarian
# protocol-details: NCI tumour cell line growth inhibition, 48 h

These solved cases illustrate the format of a correct answer.
CC[C@]1(Cc2ccc(OC)c(OC)c2)C=[N+]([O-])O[C@H](OC2CCCC2(c2ccccc2)c2ccccc2)[C@@H]1OC(C)=O (stereo partly drawn) ... 4.13 µM
Nc1cccc(/C=C/C(=O)N2CCN(CCOC(c3ccccc3)c3ccccc3)CC2)c1 ... 32 µM
COCC(O)Cn1ccnc1[N+](=O)[O-] (stereo not drawn) ... > 100 µM

Q. Fill blank: measured TGI of the compound CCOC1=C2C(=O)OC(=O)C2C2CCCCC2=C1 (stereo not drawn) is ____.
A. > 100 µM

Q. Fill blank: measured TGI of the compound CCCCCCC(=O)O[C@H]1CC[C@H]2[C@@H]3CCC4C/C(=N/NC(=O)c5cccc6c(=O)c7ccccc7[nH]c56)C=C(C)[C@]4(C)[C@H]3CC[C@]12C (stereo partly drawn) is ____.
A. > 25 µM

Q. Fill blank: measured TGI of the compound COc1ccc2c(c1)[nH]c1c(/C=C/c3ccccc3)nccc12 is ____.
A. 36.9 µM

Q. Fill blank: measured TGI of the compound O=C(NC(=O)c1cn(CCN(CCO)C(=O)NCCCCCCNC(=O)N(CCO)CCn2cc(C(=O)NC(=O)OCc3ccccc3)c(=O)[nH]c2=O)c(=O)[nH]c1=O)OCc1ccccc1 is ____.
A. > 100 µM

Q. Fill blank: measured TGI of the compound CCC12CCCN(Cc3ccccc3)C1c1c(n(C)c3ccccc13)C(C(=O)OC)C2 (stereo not drawn) is ____.
A. 170 µM
